Data credit: PubChem BioAssay (NCATS)

Assay: Quantitative highthroughput screen to assess conditional lethalithy of SEM cells grown in Human Plasma-Like Medium with dialyzed fetal bovine serum (HPLM+ds) (AID 1963882); note: nearly all actives have a fitted effect of over 35% in size
Settings: SEM B-ALL cells in HPLM+ds, CellTiter-Glo viability, 48 h; series mostly up to 45.8 µM
Inconclusive results are not listed. Active and inactive are the calls of the source. Calls come from the whole dose curve; as a rule, active = well fitted cell-killing curve with a large enough effect; inconclusive = small, poorly fitted or top-dose-only effect, or effect the other way; inactive = no such curve, though single readings can be large or run the other way.
Field 'call' accepts TRUE = active, FALSE = inactive

// known answers, use as guide
compound	class
C=CC(=O)N1CCc2ccc(-n3c(=O)ccc4cnc5ccc(-c6cnn(C)c6)cc5c43)cc21	TRUE
COc1nccc(-c2c(-c3ccc(F)cc3)ncn2C2CCNCC2)n1	FALSE
CC1(C)CCC(C)(C)c2cc(NC(=O)c3ccc(C(=O)O)cc3)ccc21	FALSE

Input: Status in this test for "N#CC1(c2ccc(NC(=O)c3cccnc3NCc3ccncc3)cc2)CCCC1" ?
Output: FALSE

Input: Status in this test for "CCCc1nc(C(C)(C)O)c(C(=O)O)n1Cc1ccc(-c2ccccc2-c2nn[nH]n2)cc1" ?
Output: FALSE

###

Test: Viability qHTS for spleen associated tyrosine kinase inhibitor (SYKi) naive MV4-11 cells (AID 1963823); note: nearly all actives have a fitted effect of over 40% in size
Conditions: MV4-11 AML viability, CellTiter-Glo luminescence, 72 h; series mostly up to 45 µM
Inconclusive results are not listed. Activity calls are given as the source filed them. Calls follow the shape of the dose curve; as a rule, active = well fitted cell-killing curve with a large enough effect; inconclusive = small, poorly fitted or top-dose-only effect, or effect the other way; inactive = no such curve, though single readings can be large or run the other way.
Field 'call' accepts TRUE (active), FALSE (inactive)

compound	class
CCCCCCCCCCCC(=O)[O][Sn]([CH2]CCC)([CH2]CCC)[O]C(=O)CCCCCCCCCCC	FALSE
Oc1ccc(Nc2nc(-c3ccc(Cl)cc3)cs2)cc1	TRUE
Cc1c(C)c2c(c(C)c1OC(=O)c1cccnc1)CC[C@@](C)(CCC[C@H](C)CCC[C@H](C)CCCC(C)C)O2	FALSE
CN1CC(=O)N2[C@H](c3ccc4c(c3)OCO4)c3[nH]c4ccccc4c3C[C@@H]2C1=O	FALSE
O=C(Nc1ccccc1)c1ccc(Nc2nnc(-c3ccc(O)cc3)c3ccccc23)cc1	TRUE

Input: Status in this test for COc1cc(C(=O)NC2CCCNC2)cc(OC)c1OC (configuration not stated) ?
Output: FALSE

Input: Status in this test for NC(=O)COCCN1CCN(C(c2ccccc2)c2ccc(Cl)cc2)CC1 (configuration not stated) ?
Output: FALSE

Input: Status in this test for CC(C(=O)O)c1ccc(-c2ccccc2)c(F)c1 (configuration not stated) ?
Output: FALSE

Input: Status in this test for CN(CC1COCCO1)S(=O)(=O)Nc1ccc2ccc3ncc(-c4cnn(C)c4)cc3c(=O)c2c1 (configuration not stated) ?
Output: TRUE

###

Experiment: Quantitative highthroughput screen to assess conditional lethalithy of P12 Ichikawa cells grown in RPMI1640 with untreated serum (RPMI+s) (AID 1963881); note: nearly all actives have a fitted effect of over 35% in size; note: potency is the fitted concentration of half-maximal effect
Conditions: ATP luminescence, 48 h; viability; series mostly up to 45.8 µM
Inconclusive results are not listed. Calls of active or inactive are those of the source. Calls follow the shape of the dose curve; as a rule, active = well fitted cell-killing curve with a large enough effect; inconclusive = small, poorly fitted or top-dose-only effect; inactive = flat fitted curve, though single readings scatter.
observable: Potency

Below, 5 molecules whose answers are already recorded.
molecule	observable	test-value
O=C(O)C1=CO[C@@H](O[C@@H]2O[C@H](CO)[C@H](O)[C@H](O)[C@H]2O)[C@@H]2C(CO)=CC[C@H]12	Potency	inactive
CC(C)(C)OC(=O)N[C@H]1CCCCCC=C[C@@H]2C[C@@]2(C(=O)NS(=O)(=O)C2CC2)NC(=O)[C@@H]2C[C@@H](OC(=O)N3Cc4cccc(F)c4C3)CN2C1=O	Potency	inactive
CN[C@@H]1[C@@H](O)[C@@H](O[C@@H]2[C@@H](O)[C@H](O[C@H]3O[C@H](CN)[C@@H](O)[C@H](O)[C@@H]3O)[C@@H](N)C[C@@H]2NC(=O)[C@@H](O)CN)OC[C@]1(C)O	Potency	inactive
OCCCNc1cc(-c2ccnc(Nc3cccc(Cl)c3)n2)ccn1	Potency	0.526 µM (active)
NS(=O)(=O)c1cc(C(=O)O)c(NCc2ccco2)cc1Cl	Potency	inactive

# Potency of "CON(C)C(=O)N1N=C(c2cc(F)ccc2F)S[C@]1(CCCN)c1ccccc1" = inactive

# Potency of "CN(Cc1cc(Br)cc(Br)c1N)C1CCCCC1" = inactive

# Potency of "COc1cc(C[C@@H](CO)[C@H](CO)Cc2ccc(O)c(OC)c2)ccc1O" = inactive

# Potency of "O=C(c1ccc(F)c(F)c1Nc1ccc(I)cc1F)N1CC(O)([C@H]2CCCCN2)C1" = 8.33 µM (active)

# Potency of "O=C(O)Cn1nnc(-c2cc(N3CCC(Oc4cc(F)ccc4Br)CC3)no2)n1" = 9.35 µM (active)

# Potency of "CCCCCCCCCCCCCCCC(=O)O[C@H]1[C@@H](O)[C@@H](O)[C@@H]([C@H](NC(=O)[C@@H]2C[C@@H](CCC)CN2C)[C@H](C)Cl)O[C@@H]1SC" = inactive

# Potency of O=C1CSC(=O)N1C(CCc1ccncc1)COc1ccc(-c2cccc([N+](=O)[O-])c2)cc1 (centres undefined) = inactive

# Potency of CC1=C(C(=O)Nc2cc3cn[nH]c3cc2F)C(c2ccc(Cl)cc2F)N=C(c2ccnc(Cl)c2)N1 (centres undefined) = 18.7 µM (active)

# Potency of "CON(C)C(=O)N1N=C(c2cc(F)ccc2F)S[C@@]1(CCCN)c1ccccc1" = 0.0209 µM (active)

# Potency of "CC(=O)O[C@]1(C(C)=O)CC[C@H]2[C@@H]3C=C(Cl)C4=CC(=O)[C@@H]5C[C@H]5[C@]4(C)[C@@H]3CC[C@@]21C" = 2.96 µM (active)

# Potency of "O=C(O)c1cc(=O)c2c(OCC(O)COc3cccc4oc(C(=O)O)cc(=O)c34)cccc2o1" = inactive

# Potency of CC(O)C1C(=O)N2C(C(=O)O)=C(SC3CNC(C(=O)N(C)C)C3)C(C)C12 (centres undefined) = inactive

# Potency of "COC1=C(OC)C(=O)C(CC=C(C)CCC=C(C)CCC=C(C)CCC=C(C)CCC=C(C)CCC=C(C)CCC=C(C)CCC=C(C)CCC=C(C)CCC=C(C)C)=C(C)C1=O" = inactive
